# assayRemarks: chemical genetic growth profiling, strain panel (AID 1159580);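 note: tested at 20 µM; growth read once vehicle control cultures reached saturation at 30 °C; 1 = growth at the plate median or of vehicle wells; lower values mean less growth of the strain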
# statedConditions: S. cerevisiae deletion strains, growth OD, locus YJL095W, strain BCK1, active compounds read low
Screen size: about 5,500 compounds; about 2,000 (36%) were called active. About 18% were inconclusive and are not listed. The list shows a part of the results.
For each record, write down the corresponding normalized growth.
Give bare numbers.

Consider the reported normalized growth for these molecules:
1. C=CCSC[C@@H](N)C(=O)O; 0.936
2. O=c1c(O)cccc2c(C3Oc4cc(O)cc(O)c4CC3O)cc(O)c(O)c12 (stereo unspecified); 0.0943
3. NC(N)=Nc1ccc(Cl)cc1; 1.02

Give me normalized growth for each of these molecules, listed below.
1. C=CCSCC=C
2. CN(C)/C=C1\CSc2ccc(Cl)cc2C1=O
3. Clc1cccc(Cl)c1C1CC(c2ccccc2)=Nc2ccccc2S1 (stereo unspecified)
4. C[C@H]1O[C@H](O[C@H]2[C@H](O)[C@@H](O)[C@@H](O[C@H]3[C@H](O)[C@@H](O)C(O)O[C@@H]3CO)O[C@@H]2CO)[C@H](O)[C@@H](O)[C@@H]1N[C@H]1C=C(CO)[C@@H](O)[C@H](O)[C@H]1O (stereo partly specified)
5. CCOC(=O)C1=C(O)C(=O)N(Cc2ccccc2)C1
6. C=CCSSCC=C

1: 1.03; 2: 0.444; 3: 1; 4: 0.957; 5: 1.01; 6: 0.822

Give me normalized growth for each of these molecules, listed below.
1. O=C(Oc1cccc2cccnc12)c1ccccc1
2. O=C(NNc1cc(C(F)(F)F)cc(C(F)(F)F)c1)c1cnc2n(c1=O)CCS2
3. O=c1cc(CSc2ccc(Cl)cc2)c2ccc(O)cc2o1
4. CO/N=C1/CC(C)(C)Cc2c(-c3ccn(C(=O)Nc4cccc(Cl)c4)n3)sc(SC)c21
5. COc1cc(C)c2c(=O)c3c(O)cc(O)cc3oc2c1
6. CO[C@H]1[C@@H](O)[C@@H](C)O[C@H](O[C@H]2CCC3(C)C4CCC5(C)[C@@H](C6=CC(=O)OC6)CC[C@]5(O)[C@@H]4CC[C@]3(O)C2)[C@@H]1O (stereo partly specified)
7. COc1cc2c(cc1OC)-c1c(oc3cc(O)cc(O)c3c1=O)CO2

[0.916, 0.98, 0.432, 1.02, 0.829, 1.04, 1.05]

Give me normalized growth for each of these molecules, listed below.
1. O=c1c(-c2ccc(O)cc2)coc2c(C3O[C@H](CO)[C@@H](O)[C@H](O)[C@H]3O)c(O)ccc12 (stereo partly specified)
2. COc1cc(O)c2c(=O)cc(-c3ccc(OC)c(-c4c(O)cc(O)c5c(=O)cc(-c6ccc(O)cc6)oc45)c3)oc2c1
3. FC(F)(F)Oc1ccc(OCc2n[nH]c(=S)n2-c2ccc(Cl)cc2)cc1
4. COc1cc(C)c2c(=O)c3c(O)cc(OC)cc3oc2c1
5. O=S(=O)(c1cc(Cl)ccc1Cl)N1CCc2ccccc2C1

1: 0.973; 2: 0.939; 3: 1.15; 4: 0.995; 5: 0.96
